measurement.target: HCV NS3/4A protease genotype 1b (Hepatitis C virus genotype 1b)
procedure.text: HCV NS3/4A protease time-resolved fluorescence (TRF) assay, Ki against genotype 1b
Type: biochemical
condition.parameters: IC50 [gt-1b] (nM), NS3/4A genotype 1b, enzyme 0.2 nM
measured.endpoint: IC50 (nM)
Please give a number only; it is taken to be in nM.

Ask: I'd like to know its IC50. The molecule in question is Cc1nc2cc(Cl)ccc2c2c1O[C@]1(CC2)C[C@H]2C(=O)N[C@]3(C(=O)NS(=O)(=O)C4(C)CC4)C[C@H]3/C=C\CCCCC[C@H](NC(=O)OC(C)(C)C)C(=O)N2C1
Result: 0.051

Ask: What IC50 value was documented for this molecule, Cc1nc2cc(Cl)ccc2c2c1O[C@]1(CC2)C[C@H]2C(=O)N[C@]3(C(=O)NS(=O)(=O)C4(C)CC4)C[C@H]3/C=C\CCCCC[C@H](NC(=O)OC3CCCC3)C(=O)N2C1 ?
Result: 0.02

Ask: Dear colleague, I am looking for the recorded IC50 of the following molecule: COc1ccc2nc(C3CC3)c3c(c2c1)CC[C@]1(C[C@H]2C(=O)N[C@]4(C(=O)NS(=O)(=O)C5(C)CC5)C[C@H]4/C=C\CCCCC[C@H](NC(=O)NC4CCCC4)C(=O)N2C1)O3
Result: 0.007

====

Would you kindly list IC50 for each of these compounds?
measurement.target: HCV NS3/4A protease genotype 1b (Hepatitis C virus genotype 1b, UniProt P26663)
procedure.text: HCV NS3/4A protease time-resolved fluorescence (TRF) assay, Ki against genotype 1b
Format: biochemical
condition.parameters: IC50 [gt-1b], NS3/4A protease TRF assay, genotype 1b enzyme 0.2 nM; K+ salt
Value expressed in nM; do not type the unit.

Ask: Given the compound CCc1nc2ccc(OCCN3CCOCC3)cc2c2c1O[C@]1(CC2)C[C@H]2C(=O)N[C@]3(C(=O)NS(=O)(=O)C4(C)CC4)C[C@H]3/C=C\CCCCC[C@H](NC(=O)OCC(C)(C)C)C(=O)N2C1 [Example 510] , what is its reported IC50?
Result: 0.004

Ask: Request the reported IC50 associated with CCc1nc2ccc(OCCN3CCOCC3)cc2c2c1O[C@]1(CC2)C[C@H]2C(=O)N[C@]3(C(=O)NS(=O)(=O)C4(C)CC4)C[C@H]3/C=C\CCCCC[C@H](NC(=O)OC3(C)CCC3)C(=O)N2C1 [Example 509]
Result: 0.006

Ask: I am curious: what IC50 value has been reported for COc1ccc2nc(C(F)(F)F)c3c(c2c1)CC[C@]1(C[C@H]2C(=O)N[C@]4(C(=O)NS(=O)(=O)C5(C)CC5)C[C@H]4/C=C\CCCCC[C@H](NC(=O)OCC(F)F)C(=O)N2C1)O3 [Example 499] ?
Result: 0.004

Ask: Data request, read-out IC50, for COc1ccc2nc(C(F)(F)F)c3c(c2c1)CC[C@]1(C[C@H]2C(=O)N[C@]4(C(=O)NS(=O)(=O)C5(C)CC5)C[C@H]4/C=C\CCCCC[C@H](NC(=O)OC4CCOC4)C(=O)N2C1)O3 (stereo partly drawn) [Example 481]
Result: 0.006

Ask: Give its IC50 value. Item: COc1ccc2nc(C)c3c(c2c1)[C@H](F)C[C@]1(C[C@H]2C(=O)N[C@]4(C(=O)NS(=O)(=O)C5(C)CC5)C[C@H]4/C=C\CCCCC[C@H](NC(=O)OC4CCCC4)C(=O)N2C1)O3 [Example 373]
Result: 0.011

Ask: Find the recorded IC50 belonging to COc1ccc2nc(C)c3c(c2c1)[C@H](F)C[C@]1(C[C@H]2C(=O)N[C@]4(C(=O)NS(=O)(=O)C5(C)CC5)C[C@H]4/C=C\CCCCC[C@H](NC(=O)OCC(C)C)C(=O)N2C1)O3 [Example 372] and report it.
Result: 0.01

Ask: Query: IC50; subject: CC(C)COC(=O)N[C@H]1CCCCC/C=C\[C@@H]2C[C@@]2(C(=O)NS(=O)(=O)C2(C)CC2)NC(=O)[C@@H]2C[C@]3(CCc4c(c(C(F)(F)F)nc5ccc(OCF)cc45)O3)CN2C1=O [Example 491]
Result: 0.003

Ask: Tell me the measured IC50 of CC[C@H](C)OC(=O)N[C@H]1CCCCC/C=C\[C@@H]2C[C@@]2(C(=O)NS(=O)(=O)C2(C)CC2)NC(=O)[C@@H]2C[C@]3(CCc4c(c(C(F)F)nc5ccc(OC)cc45)O3)CN2C1=O [Example 444] , please.
Result: 0.014

Ask: So what does the record say about IC50 for COc1ccc2nc(C3CC3)c3c(c2c1)[C@H](F)C[C@]1(C[C@H]2C(=O)N[C@]4(C(=O)NS(=O)(=O)C5(C)CC5)C[C@H]4/C=C\CCCCC[C@H](NC(=O)O[C@H](C)C(C)C)C(=O)N2C1)O3 [Example 457] ?
Result: 0.068

Ask: What measured IC50 goes with COc1ccc2nc(C(F)F)c3c(c2c1)CC[C@]1(C[C@H]2C(=O)N[C@]4(C(=O)NS(=O)(=O)C5(C)CC5)C[C@H]4/C=C\CCCCC[C@H](NC(=O)OCC(C)(C)C)C(=O)N2C1)O3 [Example 441] ?
Result: 0.016

Ask: // returns reported IC50 for input COc1ccc2nc(C)c3c(c2c1)[C@H](F)C[C@]1(C[C@H]2C(=O)N[C@]4(C(=O)NS(=O)(=O)C5(C)CC5)C[C@H]4/C=C\CCCCC[C@H](NC(=O)O[C@@H](C)C(C)C)C(=O)N2C1)O3 [Example 358]
Result: 0.172

Ask: Endpoint output: IC50 of COc1ccc2nc(C3CC3)c3c(c2c1)[C@H](F)C[C@]1(C[C@H]2C(=O)N[C@]4(C(=O)NS(=O)(=O)C5(C)CC5)C[C@H]4/C=C\CCCCC[C@H](NC(=O)OC(C)C)C(=O)N2C1)O3 [Example 456] . Value?
Result: 0.021

Ask: What IC50 value was documented for this compound, CCc1nc2ccc(OCCCOC)cc2c2c1O[C@]1(CC2)C[C@H]2C(=O)N[C@]3(C(=O)NS(=O)(=O)C4(C)CC4)C[C@H]3/C=C\CCCCC[C@H](NC(=O)OCC(C)(C)C)C(=O)N2C1 [Example 488] ?
Result: 0.004

Ask: Given the compound CCc1nc2ccc(OCCCOC)cc2c2c1O[C@]1(CC2)C[C@H]2C(=O)N[C@]3(C(=O)NS(=O)(=O)C4(C)CC4)C[C@H]3/C=C\CCCCC[C@H](NC(=O)O[C@@H](C)C(C)C)C(=O)N2C1 [Example 487] , what is its reported IC50?
Result: 0.005

Ask: Tell me the measured IC50 of COc1ccc2nc(C(F)F)c3c(c2c1)CC[C@]1(C[C@H]2C(=O)NC4(C(=O)NS(=O)(=O)C5(C)CC5)C[C@H]4/C=C\CCCCC[C@H](NC(=O)O[C@@H]4C[C@@H]5C[C@@H]5C4)C(=O)N2C1)O3 (stereo partly drawn) [Example 503] , please.
Result: 0.007

Ask: Returns the measured IC50 for the input compound. Input: COc1ccc2nc(C3CC3)c3c(c2c1)[C@H](F)C[C@]1(C[C@H]2C(=O)N[C@]4(C(=O)NS(=O)(=O)C5(C)CC5)C[C@H]4/C=C\CCCCC[C@H](NC(=O)OCC(C)(C)C)C(=O)N2C1)O3 [Example 455]
Result: 0.04

Ask: Would you mind telling me what IC50 value was observed for COc1ccc2nc(C3CC3)c3c(c2c1)CC[C@]1(C[C@H]2C(=O)N[C@]4(C(=O)NS(=O)(=O)C5(C)CC5)C[C@H]4/C=C\CCCCC[C@H](NC(=O)O[C@@H](C)C(C)C)C(=O)N2C1)O3 [Example 412] ?
Result: 0.038

Ask: Entry CC[C@H](C)OC(=O)N[C@H]1CCCCC/C=C\[C@@H]2C[C@@]2(C(=O)NS(=O)(=O)C2(COC)CC2)NC(=O)[C@@H]2C[C@]3(CCc4c(c(C(F)F)nc5ccc(OC)cc45)O3)CN2C1=O [Example 477] has what IC50?
Result: 0.019

====

measurement.target: HCV NS3/4A protease A156T mutant (Hepatitis C virus genotype 1b, UniProt P26663, A1182T)
procedure.text: HCV NS3/4A protease time-resolved fluorescence (TRF) assay, Ki against A156T mutant
Type: biochemical
condition.parameters: NS3/4A protease TRF assay, A156T mutant enzyme 0.4 nM; K+ salt; read-out: IC50 [gt-1b A156T]
pIC50: −log10 of the molar value.
Label Y when pIC50 is at or above 10; anything below gets N.

Ask: Given COc1ccc2nc(C(F)(F)F)c3c(c2c1)CC[C@]1(C[C@H]2C(=O)N[C@]4(C(=O)NS(=O)(=O)C5(C)CC5)C[C@H]4/C=C\CCCCC[C@H](NC(=O)OC4CCOC4)C(=O)N2C1)O3 (some centres unmarked) , state whether its pIC50 is at least 10.
Result: N

Ask: Textbook exercise: given the entry COCCCOc1ccc2nc(C(F)(F)F)c3c(c2c1)CC[C@]1(C[C@H]2C(=O)N[C@]4(C(=O)NS(=O)(=O)C5(C)CC5)C[C@H]4/C=C\CCCCC[C@H](NC(=O)OC4(C)CCC4)C(=O)N2C1)O3 , state whether its pIC50 is greater than or equal to 10.
Result: N

Ask: API: above_or_equal(metric=pIC50, cutoff=10) for item COc1ccc2nc(C)c3c(c2c1)[C@H](F)C[C@]1(C[C@H]2C(=O)N[C@]4(C(=O)NS(=O)(=O)C5(C)CC5)C[C@H]4/C=C\CCCCC[C@H](NC(=O)OCC(C)(C)F)C(=O)N2C1)O3
Result: Y
